Biological target: JAK3 (Homo sapiens, UniProt P52333)
Construct: purchased Carna Biosciences, Inc
Sequence (P52333 whole entry): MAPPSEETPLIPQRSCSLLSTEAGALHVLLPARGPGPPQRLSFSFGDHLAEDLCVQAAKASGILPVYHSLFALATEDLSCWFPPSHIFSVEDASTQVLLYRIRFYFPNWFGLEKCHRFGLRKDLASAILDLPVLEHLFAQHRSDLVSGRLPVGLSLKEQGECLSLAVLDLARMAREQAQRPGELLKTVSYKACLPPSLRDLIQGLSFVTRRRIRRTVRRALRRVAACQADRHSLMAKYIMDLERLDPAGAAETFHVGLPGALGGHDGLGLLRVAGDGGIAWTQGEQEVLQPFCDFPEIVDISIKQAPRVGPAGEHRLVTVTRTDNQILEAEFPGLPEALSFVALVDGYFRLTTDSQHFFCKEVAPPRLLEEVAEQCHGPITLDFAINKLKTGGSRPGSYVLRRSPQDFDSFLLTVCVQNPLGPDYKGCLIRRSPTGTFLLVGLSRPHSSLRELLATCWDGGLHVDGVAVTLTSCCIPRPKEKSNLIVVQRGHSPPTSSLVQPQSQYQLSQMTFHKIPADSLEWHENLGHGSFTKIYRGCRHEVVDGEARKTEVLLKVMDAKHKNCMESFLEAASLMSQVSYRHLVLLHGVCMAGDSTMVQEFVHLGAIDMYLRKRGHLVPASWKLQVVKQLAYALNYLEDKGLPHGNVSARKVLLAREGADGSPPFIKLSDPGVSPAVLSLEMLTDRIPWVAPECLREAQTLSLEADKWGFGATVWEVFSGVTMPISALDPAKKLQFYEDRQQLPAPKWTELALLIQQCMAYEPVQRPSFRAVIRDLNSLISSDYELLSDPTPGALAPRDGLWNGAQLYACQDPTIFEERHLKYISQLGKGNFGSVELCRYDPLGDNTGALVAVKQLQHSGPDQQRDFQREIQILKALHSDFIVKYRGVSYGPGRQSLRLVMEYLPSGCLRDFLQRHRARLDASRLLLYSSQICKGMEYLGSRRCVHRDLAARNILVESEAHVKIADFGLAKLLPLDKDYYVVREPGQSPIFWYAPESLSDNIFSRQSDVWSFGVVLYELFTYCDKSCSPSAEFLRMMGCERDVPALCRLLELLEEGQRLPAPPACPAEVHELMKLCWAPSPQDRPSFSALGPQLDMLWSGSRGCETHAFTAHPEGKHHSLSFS
Assay: JAK tyrosine kinase inhibitory activity in the presence of 1 mM ATP (ELISA), JAK3
Format: biochemical
Description: 1. Preparation of Test Compound The test compound was dissolved in dimethyl sulfoxide (DMSO) to 10 mM and further diluted with DMSO to the concentrations of 1000, 100, 10, 1, 0.1 and 0.01 μM, respectively. For JAK1, these solutions of the test compound at the six concentrations 10 mM, 1000 μM, 100 μM, 10 μM, 1 μM and 0.1 μM were used. […] The activity was determined by ELISA method. […] The absorbance at 450 nm was measured using a microplate reader (BIO-RAD). […]
Structures can show the parent of a compound that is named as a salt.
Measurement label: IC50 (nM)
API: value field is a number in nM; no unit string.

Known results for compounds:
[
  {
    "Compound": "CC(C)OC(=O)NC1CCN(C(=O)c2cc(N[C@H](C)C(C)(C)C)nc(-c3cnn4ccsc34)n2)CC1 [Example 29]",
    "IC50, nM": 3000
  },
  {
    "Compound": "C[C@@H](Nc1cc(C(=O)N2CCC(NC(=O)OC(C)(C)C)CC2)nc(-c2cnn3ccsc23)n1)C(C)(C)C [Example 100]",
    "IC50, nM": 3400
  },
  {
    "Compound": "O=C(NC1CCN(C(=O)c2cc(N[C@H]3CC[C@H](O)CC3)nc(-c3cnn4ccsc34)n2)CC1)C1CC1 [Example 168]",
    "IC50, nM": 3200
  },
  {
    "Compound": "C[C@H](Nc1cc(C(=O)N2CCC(NC(=O)C3CCCC3)CC2)nc(-c2cnn3ccsc23)n1)C1CC1 [Example 166]",
    "IC50, nM": 1300
  },
  {
    "Compound": "CC(C)OC(=O)NC1CCN(C(=O)c2cc(NC(C)(C)C)nc(-c3cnn4ccsc34)n2)CC1 [Example 60]",
    "IC50, nM": 6100
  }
]

Query: Bench note: what IC50 did CCOc1c(N[C@@H](C)C2CC2)nc(-c2cnn3ccsc23)nc1C(=O)N1CCC(NC(=O)OC)CC1 [Example 154] show?
Result: 3100

Query: Try C[C@H](Nc1cc(C(=O)N2CCC(O)CC2)nc(-c2cnn3ccsc23)n1)C1CC1 [Example 20, hydrochloride] next.
Result: 4200
